target: Rvs167, P39743; assay: SPOT array; settings: median of control spots 2707
Sequence (P39743 419-482): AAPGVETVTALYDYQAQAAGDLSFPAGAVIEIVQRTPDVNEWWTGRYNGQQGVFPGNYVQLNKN
property: SPOT intensity
No unit in the answer, please; the number alone is enough.

GKFIPSRPAPKPPSS
5

So what's the measured SPOT intensity for this one? DGNEEKPLLPTRPNK
263

Need SPOT intensity of MAMRPIPPLPTESEY , thanks.
1460

// returns reported SPOT intensity for input YVRRRPRVRLEPLLS
0

Query (binder): PIVPSSPAPPLPLSG ; field requested: SPOT intensity
0

Would you mind telling me what SPOT intensity value was observed for NLPKRKPPKLQGPFS ?
0

Looking for the measured SPOT intensity of AGKRRLPLVRFKASD , can you help?
6
